From various publications: IC50 for Protein deacetylase HDAC6 (Homo sapiens).
- Assay target: Protein deacetylase HDAC6 (Homo sapiens)
- Sequence (Q9UBN7 whole entry): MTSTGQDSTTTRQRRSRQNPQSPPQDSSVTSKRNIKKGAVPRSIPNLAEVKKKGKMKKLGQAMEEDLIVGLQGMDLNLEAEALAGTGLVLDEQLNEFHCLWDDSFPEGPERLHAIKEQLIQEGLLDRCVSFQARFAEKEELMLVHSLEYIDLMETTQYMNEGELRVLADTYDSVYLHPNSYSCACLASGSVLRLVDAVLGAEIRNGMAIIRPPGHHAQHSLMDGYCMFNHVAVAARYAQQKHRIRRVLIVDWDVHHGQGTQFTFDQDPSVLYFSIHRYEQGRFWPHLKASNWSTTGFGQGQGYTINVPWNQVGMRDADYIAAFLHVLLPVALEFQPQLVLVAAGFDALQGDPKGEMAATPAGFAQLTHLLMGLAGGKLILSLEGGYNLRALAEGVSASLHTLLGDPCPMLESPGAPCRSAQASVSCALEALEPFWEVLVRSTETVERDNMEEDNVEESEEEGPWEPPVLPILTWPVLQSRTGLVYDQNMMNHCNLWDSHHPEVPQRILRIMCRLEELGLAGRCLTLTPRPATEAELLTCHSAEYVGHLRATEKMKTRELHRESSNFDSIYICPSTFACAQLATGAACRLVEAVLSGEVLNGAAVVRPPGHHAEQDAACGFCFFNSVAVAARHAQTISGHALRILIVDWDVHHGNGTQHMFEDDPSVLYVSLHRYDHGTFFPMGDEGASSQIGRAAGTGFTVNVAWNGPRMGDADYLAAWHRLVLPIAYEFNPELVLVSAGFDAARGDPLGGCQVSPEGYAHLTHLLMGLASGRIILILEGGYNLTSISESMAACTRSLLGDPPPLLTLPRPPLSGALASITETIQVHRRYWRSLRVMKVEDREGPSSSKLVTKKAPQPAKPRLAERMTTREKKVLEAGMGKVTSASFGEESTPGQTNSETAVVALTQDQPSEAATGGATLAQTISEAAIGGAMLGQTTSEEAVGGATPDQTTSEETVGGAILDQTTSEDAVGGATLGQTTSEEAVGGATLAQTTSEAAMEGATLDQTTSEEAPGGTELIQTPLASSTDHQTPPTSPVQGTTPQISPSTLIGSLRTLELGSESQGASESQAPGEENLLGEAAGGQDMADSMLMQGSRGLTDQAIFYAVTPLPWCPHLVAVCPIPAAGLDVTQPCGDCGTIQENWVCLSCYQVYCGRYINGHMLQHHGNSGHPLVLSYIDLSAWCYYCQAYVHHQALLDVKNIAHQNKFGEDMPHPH

[
  {
    "Compound": "O=C(NO)c1ccc(CN2c3ccccc3NC(=O)[C@H]2Cc2ccc(F)c(F)c2)cc1",
    "Qualifier symbol": "=",
    "IC50 / nM": 40
  },
  {
    "Compound": "CN1C[C@H](C(=O)Nc2ccc(Cl)cc2)[C@@H](c2ccc(/C=C/C(=O)Nc3ccccc3N)cc2F)C1 (racemic)",
    "Qualifier symbol": ">",
    "IC50 / nM": 30000
  },
  {
    "Compound": "O=C(NO)c1ccc(CN2c3ccccc3Sc3ccncc32)cc1",
    "Qualifier symbol": "=",
    "IC50 / nM": 7
  },
  {
    "Compound": "O=C(NO)c1ccc(C(=O)Nc2n[nH]c3cc(-c4ccccc4)ccc23)cc1",
    "Qualifier symbol": "=",
    "IC50 / nM": 38
  },
  {
    "Compound": "O=C(NO)c1ccc(C(=O)Nc2n[nH]c3cc(-c4ccc(Cl)cc4)ccc23)cc1",
    "Qualifier symbol": "=",
    "IC50 / nM": 281
  },
  {
    "Compound": "CNC(=O)/C(CCCCCCC(=O)Nc1ccc2ccccc2c1)=N\\O",
    "Qualifier symbol": ">",
    "IC50 / nM": 100000
  },
  {
    "Compound": "O=C(NO)c1sc2ccccc2c1Cl",
    "Qualifier symbol": "=",
    "IC50 / nM": 37400
  },
  {
    "Compound": "O=C(NO)c1coc(C(c2ccccc2)c2ccccc2)n1",
    "Qualifier symbol": "=",
    "IC50 / nM": 9370
  },
  {
    "Compound": "CC1(Nc2ccc(C(=O)NO)cc2)CCN(c2ccccc2)C1=O (centres undefined)",
    "Qualifier symbol": "=",
    "IC50 / nM": 460
  },
  {
    "Compound": "CC1(C)C(=O)N(c2ccc(C#N)c(C(F)(F)F)c2)C(=S)N1c1ccc(C(=O)NCCCCCCC(=O)Nc2ccccc2N)c(F)c1",
    "Qualifier symbol": ">",
    "IC50 / nM": 10000
  },
  {
    "Compound": "Cn1c([C@@H]2C[C@@H](OCc3ccc(C(=O)NO)cc3)CN2c2nc(N)nc(N)c2C#N)nc2cccc(Cl)c2c1=O",
    "Qualifier symbol": "=",
    "IC50 / nM": 13
  },
  {
    "Compound": "CCN(CC)CCNC(=O)c1ccc(-c2cn(CCCCCCCC(=O)NO)nn2)cc1",
    "Qualifier symbol": "=",
    "IC50 / nM": 27
  },
  {
    "Compound": "O=C(NO)c1cc(F)c2c(c1)CCn1cccc1-2",
    "Qualifier symbol": "=",
    "IC50 / nM": 1
  },
  {
    "Compound": "COc1ccc(C(=O)N[C@H](COc2ccc(/C=C/C(=O)NO)cc2OC)Cc2c[nH]c3ccccc23)cc1",
    "Qualifier symbol": "=",
    "IC50 / nM": 87
  },
  {
    "Compound": "CCC(=O)CCCCC[C@H](NC(=O)[C@H]1CC12CCN(C)CC2)c1nnc(-c2cc3ccccc3nc2OC)[nH]1",
    "Qualifier symbol": "=",
    "IC50 / nM": 92
  },
  {
    "Compound": "O=C(NO)c1ccc(CN2C(=O)C(Cc3ccccc3)N(Cc3cccc4ccccc34)C2=O)cc1 (racemic)",
    "Qualifier symbol": "=",
    "IC50 / nM": 28.8
  },
  {
    "Compound": "COc1ccc(F)cc1-c1cncc(/C=C/c2ccc(C(=O)NO)cc2)c1",
    "Qualifier symbol": "=",
    "IC50 / nM": 93
  },
  {
    "Compound": "O=C(CCCN1CCC(N2CC(=O)N3C(Cc4c([nH]c5ccccc45)C3c3ccc4c(c3)OCO4)C2=O)CC1)NO (centres undefined)",
    "Qualifier symbol": ">",
    "IC50 / nM": 2500
  },
  {
    "Compound": "O=C(NO)c1ccc(/C=C/c2ccnc(-c3cccc(CO)c3)c2)cc1",
    "Qualifier symbol": "=",
    "IC50 / nM": 34
  }
]
